# kon per record follows
# Target Under Test: T1, Human Angiopoietin-2 full-length (hAng2) (human, UniProt O15123 19-496)
# T1 construct: The cell assays used full-length hAng2 from R&D Systems; also called human Ang2; A2
# T1 sequence: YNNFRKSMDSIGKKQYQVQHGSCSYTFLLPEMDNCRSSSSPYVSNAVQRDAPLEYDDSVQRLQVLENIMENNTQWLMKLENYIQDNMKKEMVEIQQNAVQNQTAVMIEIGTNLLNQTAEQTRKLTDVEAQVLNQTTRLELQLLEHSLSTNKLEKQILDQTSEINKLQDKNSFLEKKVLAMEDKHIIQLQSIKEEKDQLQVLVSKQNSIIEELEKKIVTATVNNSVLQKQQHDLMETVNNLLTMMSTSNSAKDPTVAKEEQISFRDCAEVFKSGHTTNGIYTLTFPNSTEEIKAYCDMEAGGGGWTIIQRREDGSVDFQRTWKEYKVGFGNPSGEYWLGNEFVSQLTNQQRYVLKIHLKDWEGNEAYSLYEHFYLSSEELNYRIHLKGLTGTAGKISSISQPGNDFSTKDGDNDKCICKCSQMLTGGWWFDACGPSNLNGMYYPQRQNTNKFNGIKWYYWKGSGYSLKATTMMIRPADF
# Test Details: BLI (Octet), antibody fixed on AR2G sensor, hAng2 3.125-50 nM in solution, 1:1 global fit
Numeric only. Scale: M⁻¹ s⁻¹

humanized anti-Ang2 antibody 4B9H31 (antibody, V domains shown, Full-length human IgG1) VH: QVQLVESGGGLVKPGGSLRLSCAASGFTFSDYYMYWVRQAPGKGLEWVATISVGGSFTYYPDSVKGRFTISRDNAKNSLYLQMNSLRAEDTAVYYCARDWGLRPWFVYWGQGTLVTVSS VL: DIQMTQSPSSLSASVGDRVTITCKASQDVSTAVAWYQQKPGKAPKLLIYWASTRHTGVPSRFSGSGSGTDFTLTISSLQPEDFATYYCQQHYSTPPTFGQGTKVEIK	93900
humanized anti-Ang2 antibody 2C8H52 (antibody, V domains shown, Full-length human IgG1) VH: QVQLVQSGAEVKKPGASVKVSCKASGYSFTSYWMHWVKQAPGQGLEWIGMIDPSDSETRLNQKFKDKASLTVDTSTSTVYMELSSLRSEDTAVYYCARRFYYGSDWYFDVWGQGTLVTVSS VL: DIQLTQSPSFLSASVGDRVSITCKASQDVGTAVAWYQQKPGKAPKLLIYWASTRHTGVPDRFSGSGSGTEFTLTISSLQPEDFATYYCQQYSSYPLTFGQGTKVEIK	81900
humanized anti-Ang2 antibody 2C8H11 (antibody, V domains shown, Full-length human IgG1) VH: QVQLVQSGAEVKKPGASVKVSCKASGYTFTSYWMHWVRQAPGQGLEWMGMIDPSDSETRLNQKFKDRVTMTRDTSTSTVYMELSSLRSEDTAVYYCARRFYYGSDWYFDVWGQGTLVTVSS VL: DIQLTQSPSFLSASVGDRVTITCKASQDVGTAVAWYQQKPGKAPKLLIYWASTRHTGVPSRFSGSGSGTEFTLTISSLQPEDFATYYCQQYSSYPLTFGQGTKVEIK	66000

Inquiry: Requested field: kon. Item: humanized anti-Ang2 antibody 2C8H53 (antibody, V domains shown, Full-length human IgG1) VH: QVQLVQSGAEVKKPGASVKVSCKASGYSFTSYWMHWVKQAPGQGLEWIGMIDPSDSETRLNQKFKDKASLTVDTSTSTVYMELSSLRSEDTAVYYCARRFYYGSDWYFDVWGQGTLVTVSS VL: DIQLTQSPSFLSASVGDRVSITCKASQDVGTAVAWYQQKPGKAPKLLIYWASTRHTGVPDRFSGSGSGTEFTLTISSLQPEDFADYFCQQYSSYPLTFGQGTKVEIK
Reply text: 80900

Inquiry: Same lookup for humanized anti-Ang2 antibody 2C8H33 (antibody, V domains shown, Full-length human IgG1) VH: QVQLVQSGAEVKKPGASVKVSCKASGYSFTSYWMHWVRQAPGQGLEWIGMIDPSDSETRLNQKFKDKASMTRDTSTSTVYMELSSLRSEDTAVYYCARRFYYGSDWYFDVWGQGTLVTVSS VL: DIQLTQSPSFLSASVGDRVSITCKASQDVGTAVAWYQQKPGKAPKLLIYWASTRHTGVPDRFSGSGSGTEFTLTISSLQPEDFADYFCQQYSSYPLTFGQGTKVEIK , please.
Reply text: 89600

Inquiry: Same lookup for 4B9H11G4 (human IgG4 class antibody of 4B9H11) (antibody, V domains shown, The heavy chain constant region was replaced by an IgG4 class constant region; The sentence prints '4B9 heavy chain gene' where 4B9H11 is meant; also called 4B9H11-IgG4) VH: QVQLVESGGGLVKPGGSLRLSCAASGFTFSDYYMYWIRQAPGKGLEWVSTISVGGSFTYYPDSVKGRFTISRDNAKNSLYLQMNSLRAEDTAVYYCARDWGLRPWFVYWGQGTLVTVSS VL: DIQMTQSPSSLSASVGDRVTITCKASQDVSTAVAWYQQKPGKAPKLLIYWASTRHTGVPSRFSGSGSGTDFTLTISSLQPEDFATYYCQQHYSTPPTFGQGTKVEIK , please.
Reply text: 432000

Inquiry: Same lookup for humanized anti-Ang2 antibody 2C8H31 (antibody, V domains shown, Full-length human IgG1) VH: QVQLVQSGAEVKKPGASVKVSCKASGYSFTSYWMHWVRQAPGQGLEWIGMIDPSDSETRLNQKFKDKASMTRDTSTSTVYMELSSLRSEDTAVYYCARRFYYGSDWYFDVWGQGTLVTVSS VL: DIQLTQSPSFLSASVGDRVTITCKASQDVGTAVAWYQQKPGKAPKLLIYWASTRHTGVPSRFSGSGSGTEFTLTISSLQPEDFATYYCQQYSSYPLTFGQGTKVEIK , please.
Reply text: 83200

Inquiry: Same lookup for humanized anti-Ang2 antibody 4B9H11 (antibody, V domains shown, Full-length human IgG1) VH: QVQLVESGGGLVKPGGSLRLSCAASGFTFSDYYMYWIRQAPGKGLEWVSTISVGGSFTYYPDSVKGRFTISRDNAKNSLYLQMNSLRAEDTAVYYCARDWGLRPWFVYWGQGTLVTVSS VL: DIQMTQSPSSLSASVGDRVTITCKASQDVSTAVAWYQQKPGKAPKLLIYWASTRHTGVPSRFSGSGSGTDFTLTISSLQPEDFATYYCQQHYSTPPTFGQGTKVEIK , please.
Reply text: 92900

Inquiry: Same lookup for humanized anti-Ang2 antibody 2C8H12 (antibody, V domains shown, Full-length human IgG1) VH: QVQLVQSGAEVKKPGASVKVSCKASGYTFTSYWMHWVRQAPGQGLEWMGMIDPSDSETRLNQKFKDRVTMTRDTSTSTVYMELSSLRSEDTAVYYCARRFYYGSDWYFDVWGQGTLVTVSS VL: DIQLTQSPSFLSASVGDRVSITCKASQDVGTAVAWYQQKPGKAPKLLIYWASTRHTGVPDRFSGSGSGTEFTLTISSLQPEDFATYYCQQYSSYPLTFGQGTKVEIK , please.
Reply text: 95200

Inquiry: Same lookup for humanized anti-Ang2 antibody 2C8H42 (antibody, V domains shown, Full-length human IgG1) VH: QVQLVQSGAEVKKPGASVKVSCKASGYSFTSYWMHWVKQAPGQGLEWIGMIDPSDSETRLNQKFKDKASMTRDTSTSTVYMELSSLRSEDTAVYYCARRFYYGSDWYFDVWGQGTLVTVSS VL: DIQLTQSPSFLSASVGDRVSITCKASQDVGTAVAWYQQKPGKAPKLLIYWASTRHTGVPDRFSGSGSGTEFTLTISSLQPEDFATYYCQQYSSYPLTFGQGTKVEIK , please.
Reply text: 80600

Inquiry: Same lookup for humanized anti-Ang2 antibody 2C8H23 (antibody, V domains shown, Full-length human IgG1) VH: QVQLVQSGAEVKKPGASVKVSCKASGYSFTSYWMHWVRQAPGQGLEWIGMIDPSDSETRLNQKFKDRVTMTRDTSTSTVYMELSSLRSEDTAVYYCARRFYYGSDWYFDVWGQGTLVTVSS VL: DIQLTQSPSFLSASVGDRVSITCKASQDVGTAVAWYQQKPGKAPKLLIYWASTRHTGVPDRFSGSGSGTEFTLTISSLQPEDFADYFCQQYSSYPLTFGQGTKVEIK , please.
Reply text: 79500
